B1: PTPRD (parent)
chain: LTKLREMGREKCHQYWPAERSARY

Variants of: B1
Test: protein stability index of a GFP-peptide fusion (GPS, HEK-293T) (PSI 1-6); higher = more stable;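 note: lentivirally expressed fusions sorted by FACS into six bins by GFP to DsRed ratio, PSI derived from sequencing read proportions per bin multiplied by bin number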
Conditions: c terminus: a fixed tail appended
measurement.label: protein stability index
Enter the number alone.

# example entries with known answers
LTKLREMGREKCHIYWPAERSARY [Q14I] = 2.27
LTKLREMGREKCHQYWPAYRSARY [E19Y] = 1.86

Entry under test: LTKLREMGREKCHQQWPAERSARY [Y15Q] . Its protein stability index was 2.79

Entry under test: LTKLREMGRECCHQYWPAERSARY [K11C] . Its protein stability index was 2.34

Entry under test: LTKLREMGREKSHQYWPAERSARY [C12S] . Its protein stability index was 2.66

Entry under test: LTKLREMGREKCHQYWPAERSYRY [A22Y] . Its protein stability index was 2.23

Entry under test: LTKLREMGREKCHQYIPAERSARY [W16I] . Its protein stability index was 2.7

Entry under test: LMKLREMGREKCHQYWPAERSARY [T2M] . Its protein stability index was 2.29

Entry under test: LTKLREMGREKCHQYWPFERSARY [A18F] . Its protein stability index was 2.21

Entry under test: LTKLREMGREKCHQYTPAERSARY [W16T] . Its protein stability index was 2.6

Entry under test: LTKLREMGREKCHQYWWAERSARY [P17W] . Its protein stability index was 2.04

Entry under test: LTKLREMGREKCHQYWEAERSARY [P17E] . Its protein stability index was 2.5

Entry under test: LTKLREMGREKCHQYWPAKRSARY [E19K] . Its protein stability index was 2.75

Entry under test: LTKLMEMGREKCHQYWPAERSARY [R5M] . Its protein stability index was 2.39

Entry under test: LTKLREMGREKCHQYWPAERSAEY [R23E] . Its protein stability index was 2.67

Entry under test: LTKLREMGREKCHQYAPAERSARY [W16A] . Its protein stability index was 3.15

Entry under test: LTKLREMGREKCHQYWFAERSARY [P17F] . Its protein stability index was 1.99

Entry under test: LTKLREMHREKCHQYWPAERSARY [G8H] . Its protein stability index was 1.93

Entry under test: LTKLREMGRERCHQYWPAERSARY [K11R] . Its protein stability index was 2.26

Entry under test: LTKLREMLREKCHQYWPAERSARY [G8L] . Its protein stability index was 1.67

Entry under test: LTKLREMGREKCHQYWPAEMSARY [R20M] . Its protein stability index was 2.25

Entry under test: LTKLREMGREKCHQYWPAEHSARY [R20H] . Its protein stability index was 2.2
